Sourced from patent US10239925B2

SYSTEM TESTED: HLA-A*02:01 (Homo sapiens, UniProt P04439, D140Y/D185E/D98H/E176V/E277Q/G131W/G231S/I119V/I121R/I166T/I218V/L300P/L318F/N151K/N90K/P208A/P217A/Q86G/Q94H/R138H/R169H/T345S)
ASSAY: MHC binding assay (UV-ligand exchange, anti-β2m ELISA, peptide exchange yield)
SETUP CONDITIONS: binding to HLA-A*02:01
EXPERIMENTAL ENDPOINT: Peptide exchange (MHC class I binding score, peptide exchange yield)

{"columns": ["SUBSTANCE", "OBSERVED"],
 "data": [
  ["118 (KLIDNNINV; listed as Homo sapiens) [compound 118]", "“+++” (>50 = +++)"],
  ["475 (LLLNEEALAQI; listed as Homo sapiens) [compound 475]", "“+++” (>50 = +++)"],
  ["456 (LLIGHLERV; listed as Homo sapiens) [compound 456]", "“+++” (>50 = +++)"],
  ["32 (KLDDLTQDLTV; listed as Homo sapiens) [compound 32]", "“++” (>20% = ++)"],
  ["584 (ALAEVAAMENV; listed as Homo sapiens) [compound 584]", "“+++” (>50 = +++)"],
  ["73 (NIFDLQIYV; listed as Homo sapiens) [compound 73]", "“+++” (>50 = +++)"],
  ["546 (VMIAGKVAVV; listed as Homo sapiens) [compound 546]", "“+++” (>50 = +++)"],
  ["63 (YLLPSGGSVTL; listed as Homo sapiens) [compound 63]", "“++” (>20% = ++)"]
]}

Now look at this entry.
Enquiry: Give the measured Peptide exchange (MHC class I binding score, peptide exchange yield) of 494 (ALQPEPIKV; listed as Homo sapiens) [compound 494] .
Return: “++” (>20% = ++)
